Assign protein stability index to each entry below.
B1: KLHL20 (parent)
chain: YQDMIYAVGGRDDTTELSSAERYN

variants of: B1; assay: protein stability index of a GFP-peptide fusion (GPS, HEK-293T) (PSI 1-6); higher = more stable; conditions: c terminus: a fixed tail appended;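 further: lentivirally expressed fusions sorted by FACS into six bins by GFP to DsRed ratio, PSI derived from sequencing read proportions per bin multiplied by bin number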
Answer using only a numeral; do not append any unit.

Ask | For the variant shown here, YQDMIYAVGGRDDTLELSSAERYN [T15L] , give the reported protein stability index.
Reply | 2.58

Ask | For the variant shown here, YQDMIYAVGGRDDTTELSNAERYN [S19N] , give the reported protein stability index.
Reply | 2.11

Ask | For the variant shown here, YQDMIYAVGGRDPTTELSSAERYN [D13P] , give the reported protein stability index.
Reply | 2.03

Ask | For the variant shown here, YQDMIYAVGGRDGTTELSSAERYN [D13G] , give the reported protein stability index.
Reply | 2

Ask | For the variant shown here, YQDMIYAVGGRDDTTELSSAERFN [Y23F] , give the reported protein stability index.
Reply | 2.13

Ask | For the variant shown here, YQDMRYAVGGRDDTTELSSAERYN [I5R] , give the reported protein stability index.
Reply | 2.71

Ask | For the variant shown here, YQDMIYAVFGRDDTTELSSAERYN [G9F] , give the reported protein stability index.
Reply | 2.15

Ask | For the variant shown here, YQNMIYAVGGRDDTTELSSAERYN [D3N] , give the reported protein stability index.
Reply | 2.63

Ask | For the variant shown here, YGDMIYAVGGRDDTTELSSAERYN [Q2G] , give the reported protein stability index.
Reply | 3.28

Ask | For the variant shown here, YQDMIYAVGGRDDWTELSSAERYN [T14W] , give the reported protein stability index.
Reply | 1.56

Ask | For the variant shown here, YQDMIYAVGGRDDTTELSSAERYT [N24T] , give the reported protein stability index.
Reply | 1.85

Ask | For the variant shown here, YQDMIYAVGGRVDTTELSSAERYN [D12V] , give the reported protein stability index.
Reply | 1.53

Ask | For the variant shown here, YQDMIYFVGGRDDTTELSSAERYN [A7F] , give the reported protein stability index.
Reply | 1.69

Ask | For the variant shown here, YQDMIYAVGGRDDTEELSSAERYN [T15E] , give the reported protein stability index.
Reply | 2.44

Ask | For the variant shown here, YQDMIYAVGGRDYTTELSSAERYN [D13Y] , give the reported protein stability index.
Reply | 1.97

Ask | For the variant shown here, RQDMIYAVGGRDDTTELSSAERYN [Y1R] , give the reported protein stability index.
Reply | 4.89

Ask | For the variant shown here, YQEMIYAVGGRDDTTELSSAERYN [D3E] , give the reported protein stability index.
Reply | 2.48

Ask | For the variant shown here, YQDMIYAVGGRDDTTELSSAERYV [N24V] , give the reported protein stability index.
Reply | 1.75

Ask | For the variant shown here, YQDMIGAVGGRDDTTELSSAERYN [Y6G] , give the reported protein stability index.
Reply | 3.77

Ask | For the variant shown here, YQYMIYAVGGRDDTTELSSAERYN [D3Y] , give the reported protein stability index.
Reply | 1.77

Ask | For the variant shown here, YQDMIVAVGGRDDTTELSSAERYN [Y6V] , give the reported protein stability index.
Reply | 3.01

Ask | For the variant shown here, YQDMIYAVGGRDDTVELSSAERYN [T15V] , give the reported protein stability index.
Reply | 2.08
